Every entry's value here was drawn from the SangsterLogP compilation.

Test: method code SF, from Hansch, C. & Leo, A. (1987). Log P database [Dataset]. Pomona College Medicinal Chemistry Project.
outcomeMeasure: logP
API note: the answer field is a bare number with no unit suffix.

Indicate its recorded logP; the molecule in question is Cc1cccc(OC(=O)N(C)C)c1
2.05

Let me know recorded logP for CC(C(=O)N(C)c1ccc(S(=O)(=O)N(C)C)cc1)c1ccccc1 (centres undefined) , thanks.
1.73

Complete the entry with logP for Nc1nccs1
0.38

---

Experiment: method code SF, from Hansch, C. & Leo, A. (1987). Log P database [Dataset]. Pomona College Medicinal Chemistry Project.
outcomeMeasure: logP
Just the number, please, no unit attached.

Consider the worked cases shown below.
molecule | result
Cc1c(C2(c3cc(C(C)C)c(O)c(Br)c3C)OS(=O)(=O)c3ccccc32)cc(C(C)C)c(O)c1Br | 2.78
CN(C)C(=O)Nc1ccc(Br)cc1 | 2.19
c1ccc(SSc2ccccc2)cc1 | 4.41
COP(=S)(NC(C)C)Oc1ccc(Cl)cc1Cl (stereo unspecified) | 4.3
N#CSc1ccccc1 | 2.54
C=CCc1cccc2c(=O)c(C)c(-c3ccccc3)oc12 | 4.67
CSSC | 1.77
CCC1=Nc2ccc(Cl)cc2S(=O)(=O)N1 | 1.62
CC[C@H]1OC(=O)[C@H](C)[C@@H](O[C@H]2C[C@@](C)(OC)[C@@H](O)[C@H](C)O2)[C@H](C)[C@@H](O[C@@H]2O[C@H](C)C[C@H](NC)[C@H]2O)[C@](C)(O)C[C@@H](C)C(=O)[C@H](C)[C@@H](O)[C@]1(C)O | 2.21
CCN(CC)c1ccc(NC(=O)N(C)OC)cc1 | 2.33

Next, consider the following molecule.
Hello, please tell me recorded logP for this one: O=C(Nc1ccccc1)c1ccc(C(=O)Nc2ccccc2)cc1
3.72

---

Assay: method code SF, from Hansch, C. & Leo, A. (1987). Log P database [Dataset]. Pomona College Medicinal Chemistry Project.
logP vs 2: less than gives T; not less than gives F.

The examples below pair each entry with its known result.
compound | classification
CCc1ccccc1OC(C)=O | F
O=C(Oc1ccccc1)Oc1ccccc1 | F
Cc1cccc(/N=N/N(C)C)c1 | F
Cc1cccc(Cl)c1 | F
OCC(Br)(Br)Br | F
CNP(=O)(OC)Oc1ccc(SC)cc1 (stereo unspecified) | T
CC1(C)Oc2c(O)cccc2C1=O | T
N#Cc1cccc(OC(=O)CNC(=O)c2ccccc2)c1 | F

Does Cc1ccc2ncccc2c1 have logP strictly under 2?
F

Find out if reported logP for c1cnc2[nH]ccc2c1 is less than 2
T

Take the compound NC(=O)Oc1ccccc1 and say whether its logP is less than 2.
T

---

Assay: method code SF, from Hansch, C. & Leo, A. (1987). Log P database [Dataset]. Pomona College Medicinal Chemistry Project.
outcomeMeasure: logP
API doc: respond with a numeric literal and nothing else, no unit.

compound | result
N#CCc1ccsc1 | 1.26
CCOP(=S)(OCC)Oc1ccc(SC)cc1Cl | 4.4
O=Nc1ccc(O)cc1 | 1.29
OC(c1ccccc1)(C(F)(F)F)C(F)(F)F | 3.41
N#CN/C(N)=N/c1ccccc1 | 1.05
OCC(F)(F)C(F)(F)F | 1.23
CCC1(C(C)CC(C)O)C(=O)NC(=O)NC1=O (stereo not drawn) | 0.35

Shift focus to the following entry.
Give logP for CN(C)c1ccc(N=C2C=CC(=O)C=C2)cc1
2.02
